Test: yeast display, Sf9 membrane polyspecificity reagent, FACS + sequencing; frameworks hold sequencing errors
measurement.name: polyreactivity (PSR sort gate)

* QVQLVESGGGLVQAGGSLRLSCAASGTFYYYAMGWYRPAPGKERELVAAIDYSGGSTYYADSVKGRFTISRDNAKNTVYLQMNSLKPEDTAVYYCAYVSVYDFEYWGQGTQVTVSS | high polyreactivity
* QVQHVESVGGLVQAGGTLRLSCSASGQIFEPYAMGWYRQAPGKERELVAAINSGGSTNYADSVKGRFTISRDNAKNTVYLQMNSLKPEDTAVYYCNKGQNIRQSPGDYWGLGTQVTVSS | low polyreactivity
* QVQLVESGGGLVQAGGSLRLSCAASGSTFGPYAMGWYRQAPGKERELVAGISYGGGTTFYADSVKGRFTISRDNAKNTVYLQMNSLKPEDTAVYYCAATYRPNRYLEGYWGQGTQVTVSS | high polyreactivity
* QVQLVESGGGLVQAGGSLRLICAASGFIFRRNARGWSRPAPGTERELVAAISSSGGSTYYADSVKGRFTISRDNAKNTVYLQMNSLKPEDTAVYYCATVLRVTRVDYWGQGTQVTVSS | high polyreactivity
* QVQLVESGGGLDQAGGSLRLSCAASGRIFVIYAMGWYRQAPGKERELVAVINDDGSTNYADSVKGRFTISRDNAKNTVYLQMNSLKPEDTAVYYCAAESARYLTFEFDYWGQSTQVTVSS | low polyreactivity

// each sequence listed below needs its polyreactivity (PSR sort gate)
1. QVQLQESGGGLVQAGGSQRLSCAASGYIIYFQYMGWYRQAPRKEREFVAAISDGANTNYADSVKGRFTISRDNAKNTVYLQMNSLKPEDTAVYYCAVYADENYYYIYWGQGTQVTVSS
2. QVQLVESGGGLVQAGGSLRLSCAASGSIFTAYAMGWYRPAPGKERELVAAITSGGSTNYADSVKGRFTISRDNAKNTVYLQMNSLKPEDTAVYYCNADDYWLDSWSSVLWYDYWGQGTQVTVSS

**A:**
1: low polyreactivity; 2: low polyreactivity

// each sequence listed below needs its polyreactivity (PSR sort gate)
1. QVQLVESGGGLVQAGGILRLSAASGSTLAGNTMGWYRQAPGKERELVAAINDSGGSTYYADSVKGRFTISRDNAKNTVYLQMNSLKPEDTAVYYCNADGSAYIEDGYDYWGQGTQVTVSS
2. QVQLVESGGGLVQAGGSLRLSCAASGSIFSYYAMGWYRPAPGKERELVAAISWSGGSTYYADSVKGRFTISRDNAKNTVSLQMNSLIPADTAVYYCAAGVTYEKQTKYYYWGQGTQVTVSS
3. QVQLVESGGGLVQAGGSLRLSCAASGIIFPSYAMGWYRQAPGKERELVAGISSGGNTYYADSVKGRFTISRDNAKNTVYLQMNSLKPEDTAVYYCATAFAIWGLYYGYDYWGQGTQVTVSS
4. QVQLVESGGGLVQAGGSLRLSCAASGRTFPYYVMGWYRQAPGKERELVATISSSGRTYYADSVKGRFTISRDNAKNTVYLQMNSLKPEDTAVYYCAARFRWNQNYHFYSWGQGTQVTVSS

**A:**
["low polyreactivity", "high polyreactivity", "low polyreactivity", "high polyreactivity"]

###

Assay: yeast display, Sf9 membrane polyspecificity reagent, FACS + sequencing; frameworks hold sequencing errors
measurement.name: polyreactivity (PSR sort gate)

* QVQLVESGGGLVQAGGRLRLSCAASGFTQGSYAMGWHRQAPGKEREFVAGITDSGGSTYYADSVKGRYTISRDNAKNTVYLQMNSLKPEDTAVYDCNADFAPWDKQDYPYDYDYWGQGTQVTVSS | low polyreactivity
* QFQLVESGGGLVQAGGSLRLSCAASGRTFIGYAMGWYRQAPGKERELVAAITSDGGTNYADSVKGRFTISRDNAKNTVNLQMNSQKPEDTAVYYCGARRRVSYHLYGYWGQGTQVTLSS | high polyreactivity
* QVQLVESGGGLVQAGGSLRLSCAASGSTFATNTMGWYRQAPGKERELVAAITSGGSTYYADSVKGRFTISRDNAKNTVYLQMNSLKPEDTAVYYCAVRGVYYYHRAFDYWGQGTQVTVSS | high polyreactivity
* EEELVESGGGLVQAGGSLRLSCAASGRTYPNTMGWYRQAPGKERELVAAITTSGTSTRYADSVKGRFTISRDNAKNTVYLQMNSLKPEDTAVYYCATRYSGKTYHYNYWGQGTQVTVSS | high polyreactivity
* QVQLVESGGGLVQAGGSLRVSCAASGSTFASYAMGWSRQAAGKVWEFVAAICRSGGSTYYADSVKGRFTISRDNAKNTVSFQMNSREPEDPAVYYWAKSRYDYTIPEGGYWGQGTQATVSS | low polyreactivity
* QVQLVESGGDLVQAGGSLRLSCAATGYTFLRYTMGWYRQAPGKERELVAAITSGTSTYYADSVKGRFTISRDNEKNTVYLQMNSLKPEDTAVYYCDKTPTRQRYGHWGQGTQVTVSS | high polyreactivity
* QVQIVESGGGLVQAGGSLRLSCAASGRTFKYYAMGWYRPAPGKERELVAAISYSGGSTYYADSVKGRFTISRDNAKNTVYLQMNSLKPEDTAVYYCAARFTRYYSGCDQKYDYWGQGTQVTVSS | high polyreactivity
* QVQLVESGGGLVQAGGSLRLSCAASGITFNYYVKGWYRQAPGKERELVAAIRRGGSTNYADSVKGRFTISRDNAKNTVYLQMNSLKPEDTAVYYCASRTYRGLAYDYWGQGTQVTVSS | high polyreactivity
* QVQLVESGGGLVQAGGSLRLSCAASGITFVYYDMGWYRQAPGKERELLAAISSGGSTYYADSVKGRFTISRDNAKNTVYLQMNSLKPEDTAVYYCAAKISSNYHIGGDDYWGQGTQVSVSS | high polyreactivity
* QVQLVESGGGLVQAGGSLRLSCAASGSTFWIYAMGWYRQAPGKERELVAAITLRSGSTYYADSVKGRFTISRDNAKNTVYLQMNSLKPEDTSVYYCATDSWGVDRPNYNYWGQGTQVTVSS | low polyreactivity

// each sequence listed below needs its polyreactivity (PSR sort gate)
1. QVQLVESGGGLVQAGGSLRISCAASGSIFRGNAMGWYRQAHGKERELVAAITRGVSTYYADSVKGRFTISRDNAKNTVYLQMNSLKPEDTAVYYCAKPYWWGYYSWGQGSQVTVSS
2. QVQLVESGGGLVQAGGSLRLSCAASGRIFATNAMGWYRQAPGKERELVAAISDGGGSTYYADSVKGRFTISRDNAKNTVYLQMNSLKPEDTAVYYCAARVLDWRGDIHDSEYWGQGTQVTVSS

**A:**
1. high polyreactivity
2. low polyreactivity

###

Test: yeast display, Sf9 membrane polyspecificity reagent, FACS + sequencing; frameworks hold sequencing errors
measurement.name: polyreactivity (PSR sort gate)

Use these answered entries as a reference point.
• QVELVESGGGLGQAGGSLRLSCAASGSTFASNTLGWYRQAPGKEREVVAAITQSGGTTYYADSVKGRFTISRDNAKNTVFLQMNSLKPEDTAVYYDYWGQGTQVTVSS = low polyreactivity
• QVQLVESGGGLVQAGGSLRLSCAASGITFVWNAMGWYIKEPGKERELVATISRGGVRTYYADSVKGRFTISRDNAKNTVYLQMNSLKPEDTAVYYCNAYFEYYDYWGQGTQVSVSS = low polyreactivity
• QVQLVESGGGSVQAGGSLRLSCAASGFTFRYYAMGWYRQAPGKERELVAGISSRGGSTYYADSVKGRFTISRDNAKNTVYLQMNSLKPEDTAVYYCATERFLLGLGYDYWGQGTQVTVSS = high polyreactivity
• QVQLVESGGGLVQAGGSLRLSCAASGRIIPYNTMGWYRQAPGKERELVAAISQSDTGTHYADSVKGRFTISRDNAKNTVYLQMNSLKPEDTAVYYCAVDWGYSDDVPYEYWGQGTQVTVSS = low polyreactivity
• QVQLVESGGGLVQAGGSLRLSCAASGRTFRYNRMGWYRQAPGKERELVAAITGGGSTYYADSVKGRFTISRDNAKNTVYLQMNSLKPEDTPVYYCAKRRWYRYDYWGQGTQVTVSS = high polyreactivity

// each sequence listed below needs its polyreactivity (PSR sort gate)
1. QVQLVESGGGLDQAGGSLRLSCADSASTFYRYAKGWSRQAPGKEWELVAAITRTGGSTYADSVKGRFTISRDNAKNTVYLQMNSLKPEDTAVYFCAVQRYFVSSISPFYYWGQGTQVTVSS
2. QVQLVESGGGLVQAGGSLRLSCAASGRIFGGYALGWYRQAPGKERELVAAITRSGGSTYYADSVKGRFTISRDNAKNTVYVQMNSLKPEDTAVYYCAARNYYSWRYDYWGQGTQVTVSS
3. QVQLVESGGGLVQAGGSLRLSCAASGSIFNRYARGWYRQAPGKERELVAAISSTGSTYYADSVKGRFTISRDNAKNTVYLQMNSLKPEDTAVYYCNADATHDWLRVDTYEYWGQGTQVTVSS
4. QDPLVESGGLLVQAGGSLRLSCAASGFTFSRYAMGWYRQAPGKERELVAVIDNSGGTTYYADSVKGRFTISRDNAKNTVYLQMNSLKPEDTAVYYCAAKRIPRYYSASDYWGQGTQVTVSS
5. QVQLVESGGGLVQAGGSLRLSCAASGSTFWFYAMGWYRQAPGKERELVAVISNSGSTYYADSVKGRFTISRDNAKNTVYLQMNSLKPEDTAVYYSNKDGGGDSYWYDYWGQGTQVTVSS

**A:**
low polyreactivity
high polyreactivity
low polyreactivity
low polyreactivity
low polyreactivity

**Q:** Note down polyreactivity (PSR sort gate) recorded for `QVQLLESGGGLVKAGGCRRLSCAASGSTLTPYTMGWYSEAPGIERELVAAMTQCGGTTYYADSVKGRFTISRDNAQNTVYVQMNSLKPEDTAVYYCAARSYGSTSPIRVQLYYWGQGTQVTVSS`
**A:** high polyreactivity
